- Test system: PfAP2-LT AP2 domain (GST-tagged)
- TEST_NAME: gcPBM binding intensity (ln(normalized median fluorescence intensity)); higher = stronger DNA binding
Over roughly 25,000 sequences, “ln(normalized median fluorescence intensity)” has its median near 8.9; the highest 2% begin near 10. This excerpt belongs to a sample that is enriched for the highest values.
Assign T whenever gcPBM binding intensity (ln) does not fall below 9; assign F whenever it does.

BIOSEQUENCE: TGTTTATTACTCAGGTGTACTCAATTTTTTTTTTTT [XGTACX_site3470]
MEASUREMENT_TARGET: PfAP2-LT AP2 domain (GST-tagged)
LABEL: F

BIOSEQUENCE: AAAAAAAAAAAAAACACACACACACCCACATATACA [CACACA_site2663]
MEASUREMENT_TARGET: PfAP2-LT AP2 domain (GST-tagged)
LABEL: T

BIOSEQUENCE: ATAATCCTTAAACACACACACACACTAATAAATAAA [CACACA_site8052]
MEASUREMENT_TARGET: PfAP2-LT AP2 domain (GST-tagged)
LABEL: T

BIOSEQUENCE: TCGTAAACATATTGAAAAATATAAAAAGGGGTAATA [CACACA_negctrl_site619]
MEASUREMENT_TARGET: PfAP2-LT AP2 domain (GST-tagged)
LABEL: F

BIOSEQUENCE: TTTATTTATTATTGTTGTACACTTTTTATAAAAAAA [XGTACX_site5114]
MEASUREMENT_TARGET: PfAP2-LT AP2 domain (GST-tagged)
LABEL: F

BIOSEQUENCE: TTTTTTTTTTTTTTTTGTACACATAATATGAATAAT [XGTACX_site2661]
MEASUREMENT_TARGET: PfAP2-LT AP2 domain (GST-tagged)
LABEL: F

BIOSEQUENCE: AAAAAAAAAAAAAAAACACACATACACCCCCACCCA [CACACA_site9117]
MEASUREMENT_TARGET: PfAP2-LT AP2 domain (GST-tagged)
LABEL: T

BIOSEQUENCE: AATATAAATAAAAACACACACAATGGTACCTATATA [CACACA_site7688]
MEASUREMENT_TARGET: PfAP2-LT AP2 domain (GST-tagged)
LABEL: T

BIOSEQUENCE: AATATGAACAGACACACACACACAAAAAAAAAAAAA [CACACA_site2012]
MEASUREMENT_TARGET: PfAP2-LT AP2 domain (GST-tagged)
LABEL: T

BIOSEQUENCE: AAAAAAAACGCACATACACACACACCCATATATATA [CACACA_site9118]
MEASUREMENT_TARGET: PfAP2-LT AP2 domain (GST-tagged)
LABEL: T

BIOSEQUENCE: TACATAAATTAAAACACACACACACTAATAAAAAAA [CACACA_site8712]
MEASUREMENT_TARGET: PfAP2-LT AP2 domain (GST-tagged)
LABEL: T

BIOSEQUENCE: ATATAAGTTTTTTCTCAAAAAGTATAACGAGCATGA [CACACA_negctrl_site1375]
MEASUREMENT_TARGET: PfAP2-LT AP2 domain (GST-tagged)
LABEL: F
